- Experimental target: rat Serotonin Transporter (SERT), Slc6a4 (gene 25553)
- Assay notes: NVS_TR_rSERT: NovaScreen (NVS) Transporter Assay for rat Serotonin Transporter (SERT) (AID 2283375)
Inconclusive results are not listed. Activity calls are given as the source filed them. The calls were made as follows: active = hit-call score of the fitted dose curve at least 0.9, where 1 is the maximum; inconclusive = response in the unintended direction; inactive = score below 0.9.
Assay readout: AC50

C=C(C)CN(CC)c1c([N+](=O)[O-])cc(C(F)(F)F)cc1[N+](=O)[O-]	inactive
CNC(=O)Oc1cccc2ccccc12	7.36 µM (active)
COP(=S)(OC)Oc1ccc([N+](=O)[O-])c(C)c1	3.37 µM (active)
CCOc1nc(F)cc2nc(S(=O)(=O)Nc3c(Cl)cccc3Cl)nn12	inactive

----------
- Read-out: HMG-CoA synthase (HMGCS2), HMGCS2 (gene 3158)
- Assay notes: CLD_HMGCS2_48hr: CellzDirect (CLD) Gene Expression Assay for HMG-CoA synthase (HMGCS2) at 48 hours (AID 2283711)
Inconclusive results are not listed. Calls of active or inactive are those of the source. Rule for the calls: active = hit-call score of the fitted dose curve at least 0.9, where 1 is the maximum; inconclusive = response in the unintended direction; inactive = score below 0.9.
Permitted responses: T = active, F = inactive

Nc1c(Cl)c(F)nc(OCC(=O)O)c1Cl	F

State the result this test recorded for Cc1cc(C)nc(Nc2ccccc2)n1 .
F

Here is the next compound: CS(=O)(=O)c1cc(C(F)(F)F)ccc1C(=O)c1cnoc1C1CC1
F

Here is the next compound: COC(=O)NC(=S)Nc1ccccc1NC(=S)NC(=O)OC
F

Here is the next compound: CCOc1nc(F)cc2nc(S(=O)(=O)Nc3c(Cl)cccc3Cl)nn12
F

Here is the next compound: Cc1c(COC(=O)[C@@H]2[C@H](/C=C(\Cl)C(F)(F)F)C2(C)C)cccc1-c1ccccc1
F

Here is the next compound: COc1cc(OC)nc(NC(=O)NS(=O)(=O)c2ncccc2OCC(F)(F)F)n1
F

Here is the next compound: COC(=O)NS(=O)(=O)c1ccc(N)cc1
F

Here is the next compound: CC1(C)C(C(=O)OC(C#N)c2cccc(Oc3ccccc3)c2)C1(C)C (stereo unspecified)
F

Here is the next compound: CCOC(=O)C(C)OC(=O)c1cc(Oc2ccc(C(F)(F)F)cc2Cl)ccc1[N+](=O)[O-] (stereo unspecified)
T

Here is the next compound: CCCC(=NOCC)C1=C(O)CC(CC(C)SCC)CC1=O (stereo unspecified)
F

----------
- Assay notes: TOX21_p53_BLA_p5_viability: Viability Assessment in the Tox21 HCT-116 p53 Agonism Beta-lactamase Assay, Phase 5 (AID 2283600)
Inconclusive results are not listed. Activity calls are given as the source filed them. The calls were made as follows: active = hit-call score of the fitted dose curve at least 0.9, where 1 is the maximum; inconclusive = response in the unintended direction; inactive = score below 0.9.
Assay readout: outcome

Sample answers from the record:
CS(=O)(=O)c1ccc(C(=O)C2C(=O)CCCC2=O)c([N+](=O)[O-])c1	inactive
CC1(C)C(C(=O)OC(C#N)c2cccc(Oc3ccccc3)c2)C1(C)C (configuration not stated)	inactive
Nc1cnn(-c2ccccc2)c(=O)c1Cl	inactive
CCSC(=O)N1CCCCCC1	inactive
Cc1c(COC(=O)[C@@H]2[C@H](/C=C(\Cl)C(F)(F)F)C2(C)C)cccc1-c1ccccc1	inactive

Here's the next entry for you.
GET /values?readout=outcome&item= CN/C(=N\[N+](=O)[O-])NCc1cnc(Cl)s1
inactive

----------
- Read-out: Early growth response protein 1 (EGR1) transcription factor, EGR1 (gene 1958)
- Assay notes: LTEA_HepaRG_EGR1: Life Technologies and Expression Analysis (LTEA) Assay for Early growth response protein 1 (EGR1) transcription factor using HepaRG (AID 2283490)
- Condition label: mRNA level, 48 h; actives raise or lower the signal
Activity calls are given as the source filed them. The calls were made as follows: active = hit-call score of the fitted dose curve at least 0.9, where 1 is the maximum; inactive = score below 0.9.
Permitted responses: y (active), n (inactive)

Past entries and their recorded results:
CCOc1nc(C(Cl)(Cl)Cl)ns1	y
Clc1cccc(C(Cl)(Cl)Cl)n1	n
CNC(=O)N(C)c1nnc(C(C)(C)C)s1	n
COC(=O)c1c(C(F)F)nc(C(F)(F)F)c(C2=NCCS2)c1CC(C)C	n
O=C(O)c1c(Cl)ccc2cc(Cl)cnc12	n

State the result this test recorded for CC(C)N1C(=O)c2ccccc2NS1(=O)=O .
n

----------
Measured AC50 by item
- Tested on: DIO3 (gene 1735)
- Assay notes: CCTE_GLTED_hDIO3: CCTE's human Deiodinase 3 (DIO3) Inhibition Assay, Great Lakes Toxicology and Ecology Division (GLTED) Lab (AID 2284055);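 also: potency is for inhibition seen as loss of released iodide signal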
Active and inactive are the calls of the source. The calls were made as follows: active = hit-call score of the fitted dose curve at least 0.9, where 1 is the maximum; inconclusive = response in the unintended direction; inactive = score below 0.9.

Sample answers from the record:
OC(c1ccc(Cl)cc1)(c1ccc(Cl)cc1)C(Cl)(Cl)Cl	15.8 µM (active)
CCCCOCN(C(=O)CCl)c1c(CC)cccc1CC	37.6 µM (active)

GET /values?readout=AC50&item= CS(=O)(=O)c1ccc(C(=O)C2C(=O)CCCC2=O)c([N+](=O)[O-])c1
46.3 µM (active)

Here is the next compound: Cc1nc(N(C)C)nc(OC(=O)N(C)C)c1C
10 µM (active)

----------
- Assay notes: ATG_TAL_CIS: Attagene CIS-FACTORIAL HepG2 Assay for human TAL Basal Promoter (AID 2282966);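 also: background control endpoint measuring basal TAL promoter reporter mRNA not a specific factor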
- Condition label: HepG2 Attagene cis-factorial TAL promoter reporter; actives raise or lower the signal
Activity calls are given as the source filed them. Rule for the calls: active = hit-call score of the fitted dose curve at least 0.9, where 1 is the maximum; inactive = score below 0.9.
Assay readout: outcome

Sample answers from the record:
CCN(CC)C(=O)C(C)Oc1cccc2ccccc12 (stereo not drawn)	inactive
CCOP(=S)(OCC)Oc1nc(Cl)n(C(C)C)n1	inactive
CC1(C)C(C=C(Cl)Cl)C1C(=O)OC(C#N)c1cccc(Oc2ccccc2)c1 (stereo not drawn)	inactive
COc1ccc(-c2ccccc2)cc1NNC(=O)OC(C)C	inactive
Cc1ccc(N=CN(C)C=Nc2ccc(C)cc2C)c(C)c1	inactive
Nc1cnn(-c2ccccc2)c(=O)c1Cl	inactive
CCOP(=O)(OCC)Oc1nc(Cl)c(Cl)cc1Cl	inactive
CCNC(=O)NC(=O)C(C#N)=NOC	inactive
CCCCC(C#N)(Cn1cncn1)c1ccc(Cl)cc1 (stereo not drawn)	inactive
COP(=S)(OC)SCn1nnc2ccccc2c1=O	inactive

GET /values?readout=outcome&item= COCC(=O)N(c1c(C)cccc1C)C(C)C(=O)OC (stereo not drawn)
inactive

Here is the next molecule: CC(C)Nc1nc(Cl)nc(NC(C)C)n1
inactive

Here is the next molecule: O=C(O)c1c(Cl)ccc2cc(Cl)cnc12
inactive

Here is the next molecule: OC(c1ccc(Cl)cc1)(c1ccc(Cl)cc1)C(Cl)(Cl)Cl
inactive

Here is the next molecule: CO/N=C(/C1=NOCCO1)c1ccccc1Oc1ncnc(Oc2ccccc2Cl)c1F
inactive

Here is the next molecule: Cc1c(COC(=O)[C@@H]2[C@H](/C=C(\Cl)C(F)(F)F)C2(C)C)cccc1-c1ccccc1
inactive

Here is the next molecule: CCOc1cc(C(C)(C)C)ccc1C1COC(c2c(F)cccc2F)=N1 (stereo not drawn)
inactive

Here is the next molecule: CN/C(=N\[N+](=O)[O-])NCc1cnc(Cl)s1
inactive

----------
- Assay notes: CCTE_Mundy_HCI_Cortical_Synap_Neur_Matur_NeuronCount: CCTE's Synaptogenesis and Neurite Maturation Assay in rat cortical cells for Neuron Count, Mundy Lab (AID 2284242)
Inconclusive results are not listed. Calls of active or inactive are those of the source. Rule for the calls: active = hit-call score of the fitted dose curve at least 0.9, where 1 is the maximum; inconclusive = response in the unintended direction; inactive = score below 0.9.
Permitted responses: y (active), n (inactive)

Past entries and their recorded results:
C=C(C)CN(CC)c1c([N+](=O)[O-])cc(C(F)(F)F)cc1[N+](=O)[O-]	y
Cc1c(COC(=O)[C@@H]2[C@H](/C=C(\Cl)C(F)(F)F)C2(C)C)cccc1-c1ccccc1	y
COP(=O)(OC)O/C(C)=C/C(=O)N(C)C	n

State the result this test recorded for CCSC(=O)N1CCCCCC1 .
n

----------
- Experimental target: rat CYP2A1, Cyp2a1 (gene 24894)
- Assay notes: NVS_ADME_rCYP2A1: NovaScreen (NVS) CYP450-related Enzyme Activity (ADME) Assay for rat CYP2A1 (AID 2283114)
Calls of active or inactive are those of the source. How the source made its calls: active means hit-call score of the fitted dose curve at least 0.9, where 1 is the maximum; inactive means score below 0.9.
Permitted responses: active, inactive

CCCCC(C#N)(Cn1cncn1)c1ccc(Cl)cc1 (centres undefined)	active
CCCCC(O)(Cn1cncn1)c1ccc(Cl)cc1Cl (centres undefined)	active
COP(=S)(OC)SCn1nnc2ccccc2c1=O	active

State the result this test recorded for CC(C)Oc1cccc(NC(=O)c2ccccc2C(F)(F)F)c1 .
inactive

----------
- Assay notes: CCTE_Shafer_MEA_dev_spike_duration_mean: CCTE's Neural Network Formation Assay for Mean Spike Duration, Shafer Lab (AID 2284051);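 also: mean network spike duration pooled as area under curve over DIV 5 to 12 recordings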
Calls of active or inactive are those of the source. The calls were made as follows: active = hit-call score of the fitted dose curve at least 0.9, where 1 is the maximum; inactive = score below 0.9.
Permitted responses: YES for active, NO for inactive

Past entries and their recorded results:
CC1(C)C(C(=O)OC(C#N)c2cccc(Oc3ccccc3)c2)C1(C)C (stereo not drawn)	YES
CCSC(=O)N1CCCCCC1	NO
COP(=S)(OC)Oc1ccc([N+](=O)[O-])c(C)c1	NO
CCCN(CC)CC1COC2(CCC(C(C)(C)C)CC2)O1 (stereo not drawn)	YES
CC(C)=CC1C(C(=O)OCc2coc(Cc3ccccc3)c2)C1(C)C (stereo not drawn)	NO
C=C(C)CN(CC)c1c([N+](=O)[O-])cc(C(F)(F)F)cc1[N+](=O)[O-]	YES
N#CN=C1SCCN1Cc1ccc(Cl)nc1	NO
CS(=O)(=O)c1ccc(C(=O)C2C(=O)CCCC2=O)c([N+](=O)[O-])c1	NO
CNC(=O)Oc1cccc2ccccc12	NO
COP(=S)(OC)SCn1nnc2ccccc2c1=O	YES

State the result this test recorded for CN/C(=N\[N+](=O)[O-])NCc1cnc(Cl)s1 .
NO

Here is the next compound: CCN(CC)c1nc(C)cc(OP(=S)(OC)OC)n1
YES

Here is the next compound: CCNC(=O)NC(=O)C(C#N)=NOC
NO
